All figures here come from ChEMBL document CHEMBL1141210.

Below, each of the compounds is paired with its reported log10(GI50) value.
System: HCT-116
Assay: Inhibition of cell proliferation in HCT116 human colon cancer cell line
Type: functional
outcome-measure: log10(GI50) (log10 of the value in µM)

>  <compound>
O=S(=O)(Nc1ccc(O)c(-c2c(O)ccc3ccccc23)c1)c1ccc(Cl)cc1

>  <log10(GI50)>
1.44

$$$$
>  <compound>
O=S(=O)(Nc1ccc(O)c(-c2c(O)ccc3ccccc23)c1)c1cccs1

>  <log10(GI50)>
1.78

$$$$
>  <compound>
C[C@@H]1C[C@H]2O[C@@H]2/C=C\C=C\C(=O)Cc2c(Cl)c(O)cc(O)c2C(=O)O1 [RADICICOL]

>  <log10(GI50)>
-0.89

$$$$
>  <compound>
O=S(=O)(Nc1ccc(O)c(-c2c(O)ccc3ccccc23)c1)c1cc(Cl)ccc1Cl

>  <log10(GI50)>
1.46

$$$$
>  <compound>
C=CCNC1=C2C[C@@H](C)C[C@H](OC)[C@H](O)[C@@H](C)/C=C(\C)[C@H](OC(N)=O)[C@@H](OC)/C=C\C=C(/C)C(=O)NC(=CC1=O)C2=O [TANESPIMYCIN]

>  <log10(GI50)>
-0.80

$$$$
